Measured values drawn from ChEMBL document CHEMBL1149790 for this set.

Experiment: Cytotoxicity against human E6SM cells
Assay type: cell-based
Conditions: E6SM cells
OUTCOME MEASURE: MCC

MOLECULE	OBSERVED RESULT
C=CCNC(=S)Nc1ccc(-c2nnc(SCc3ccc(Cl)cc3Cl)n2-c2ccccc2)cc1	≥ 16 µg/mL
Cn1c(COc2ccc(N)cc2)n[nH]c1=S	> 400 µg/mL

query: MCC for CNC(=S)Nc1ccc(OCc2n[nH]c(=S)n2-c2ccccc2)cc1 ?
result: > 400 µg/mL

query: Recorded MCC for CCn1c(COc2ccc(NC(=S)NC)cc2)n[nH]c1=S , please?
result: > 400 µg/mL

query: GET /values?readout=MCC&item= CCNC(=S)Nc1ccc(OCc2n[nH]c(=S)n2-c2ccccc2)cc1
result: > 400 µg/mL

query: Quick one: MCC of CCNC(=S)Nc1ccc(-c2n[nH]c(=S)n2C)cc1 ?
result: ≥ 400 µg/mL

query: Which MCC value belongs to C=CCNC(=S)Nc1ccc(-c2n[nH]c(=S)n2CC=C)cc1 ?
result: ≥ 80 µg/mL

query: Consider the molecule shown here: Nc1nc2c(ncn2COC(CO)CO)c(=O)[nH]1 [GANCICLOVIR] What is its recorded MCC?
result: > 100 µg/mL

query: Recorded MCC of Nc1nc2c(ncn2COCCO)c(=O)[nH]1 [ACYCLOVIR] , please.
result: > 400 µg/mL

query: Need MCC of CCn1c(COc2ccc(N)cc2)n[nH]c1=S , thanks.
result: > 400 µg/mL

----------
Some molecules, each annotated with its measured MCC.
Experiment: Cytotoxicity against human HeLa cells
Type: cell-based
Reply numerically in µg/mL, unit not repeated.

Examples from the recorded data:
SMILES	OUTCOME MEASURE	OBSERVED RESULT
C=CCn1c(COc2ccc(NC(=S)Nc3ccccc3)cc2)n[nH]c1=S	MCC	80
C=CCNC(=S)Nc1ccc(-c2n[nH]c(=S)n2CC)cc1	MCC	400
CCNC(=S)Nc1ccc(OCc2n[nH]c(=S)n2CC)cc1	MCC	400
C=CCNC(=S)Nc1ccc(-c2n[nH]c(=S)n2CC=C)cc1	MCC	400
C=CCNC(=S)Nc1ccc(-c2n[nH]c(=S)n2CCc2ccccc2)cc1	MCC	400
CCCCCCNC(=S)Nc1ccc(-c2n[nH]c(=S)n2-c2ccccc2)cc1	MCC	400

query: # get_value(readout='MCC', item= C=CCNC(=S)Nc1ccc(OCc2n[nH]c(=S)n2C)cc1 )
result: 400

query: Quick one: MCC of CCCCCCNC(=S)Nc1ccc(-c2n[nH]c(=S)n2C)cc1 ?
result: 80

----------
Tested on: Mammalian orthoreovirus 1
Assay: Antiviral activity against Reo virus 1 in african green monkey Vero cells assessed as reduction of virus-induced cytopathogenicity
Type: functional
OUTCOME MEASURE: MIC

Use these answered entries as a reference point.
COMPOUND	MIC
CNC(=S)Nc1ccc(-c2n[nH]c(=S)n2C)cc1	> 80 mg/L
CCCCCCNC(=S)Nc1ccc(-c2n[nH]c(=S)n2C)cc1	> 16 mg/L
CCNC(=S)Nc1ccc(-c2n[nH]c(=S)n2-c2ccccc2)cc1	> 80 mg/L

query: Look up MIC: CCn1c(COc2ccc(NC(=S)Nc3ccccc3)cc2)n[nH]c1=S
result: > 80 mg/L

query: Tell me the measured MIC of S=C(Nc1ccccc1)Nc1ccc(-c2n[nH]c(=S)n2-c2ccccc2)cc1 , please.
result: > 16 mg/L

query: # MIC lookup, item C=CCn1c(COc2ccc(NC(=S)Nc3ccccc3)cc2)n[nH]c1=S
result: > 16 mg/L

query: Which MIC is reported for this compound? Cn1c(COc2ccc(N)cc2)n[nH]c1=S
result: > 3.2 mg/L

query: Looking for the measured MIC of Nc1ncnc2c1ncn2C[C@H](O)CO [(S)-DHPA] , can you help?
result: > 400 mg/L

----------
Let's look at some molecules and their measured MIC.
Tested on: Human alphaherpesvirus 2
Assay: Antiviral activity against HSV2 G in human HEL cells assessed as reduction of virus-induced cytopathogenicity
Type: functional
Conditions: Human alphaherpesvirus 2, G

C=CCNC(=S)Nc1ccc(-c2nnc(SCc3ccc(Cl)cc3Cl)n2-c2ccccc2)cc1 > 16 µg/mL
C=CCn1c(COc2ccc(NC(=S)Nc3ccccc3)cc2)n[nH]c1=S > 80 µg/mL

query: Fill blank: measured MIC of the molecule C=CCn1c(COc2ccc(NC(=S)NCC)cc2)n[nH]c1=S is ____.
result: > 400 µg/mL

query: Bench note: what MIC did Cn1c(-c2ccc(NC(=S)Nc3ccccc3)cc2)n[nH]c1=S show?
result: > 80 µg/mL

query: Data request, read-out MIC, for C=CCNC(=S)Nc1ccc(-c2n[nH]c(=S)n2CCc2ccccc2)cc1
result: > 80 µg/mL

query: Given C=CCNC(=S)Nc1ccc(-c2nnc(SCc3ccc(Cl)cc3Cl)n2C)cc1 , state its recorded MIC.
result: > 16 µg/mL

query: GET /values?readout=MIC&item= C=CCNC(=S)Nc1ccc(-c2n[nH]c(=S)n2-c2ccccc2)cc1
result: > 80 µg/mL

query: MIC lookup needed for CNC(=S)Nc1ccc(OCc2n[nH]c(=S)n2-c2ccccc2)cc1 , thanks.
result: > 400 µg/mL

query: Consider the molecule CNC(=S)Nc1ccc(-c2nnc(SCc3ccccc3)n2C)cc1 and give its measured MIC.
result: > 16 µg/mL

query: For the molecule C=CCNC(=S)Nc1ccc(-c2n[nH]c(=S)n2CCCCCC)cc1 , what MIC is on record?
result: > 16 µg/mL

----------
System: Mammalian orthoreovirus 1
Experiment: Antiviral activity against Reo virus 1 in african green monkey Vero cells assessed as reduction of virus-induced cytopathogenicity
Type: functional
Recorded measurements of MIC, one per entry

Examples with answers:
C=CCNC(=S)Nc1ccc(OCc2n[nH]c(=S)n2CC)cc1 > 80 µg/mL
CNC(=S)Nc1ccc(OCc2n[nH]c(=S)n2C)cc1 > 80 µg/mL
C=CCn1c(COc2ccc(NC(=S)NCC)cc2)n[nH]c1=S > 80 µg/mL
C=CCNC(=S)Nc1ccc(-c2nnc(SCc3ccc(Cl)cc3Cl)n2C)cc1 > 16 µg/mL

query: Requested read-out: MIC. Entry: NC(=O)c1ncn([C@@H]2O[C@H](CO)[C@@H](O)[C@H]2O)n1
result: 48 µg/mL

----------
Experiment: Cytotoxicity against human HEL cells assessed as alteration of cell morphology
Assay type: cell-based
OUTCOME MEASURE: MCC

Recorded results for 8 molecules are shown here.
Nc1ccc(OCc2n[nH]c(=S)n2-c2ccccc2)cc1 > 400 µg/mL
C=CCNC(=S)Nc1ccc(-c2n[nH]c(=S)n2-c2ccccc2)cc1 ≥ 80 µg/mL
CCCCCCNC(=S)Nc1ccc(-c2n[nH]c(=S)n2-c2ccccc2)cc1 ≥ 16 µg/mL
Nc1nc2c(ncn2COCCO)c(=O)[nH]1 > 400 µg/mL
CCNC(=S)Nc1ccc(-c2n[nH]c(=S)n2-c2ccccc2)cc1 ≥ 3.2 µg/mL
CCNC(=S)Nc1ccc(-c2n[nH]c(=S)n2C)cc1 ≥ 400 µg/mL
Cn1c(COc2ccc(NC(=S)Nc3ccccc3)cc2)n[nH]c1=S 400 µg/mL
Cn1c(COc2ccc(N)cc2)n[nH]c1=S > 400 µg/mL

query: What does the data say about its MCC? Entry: Nc1ccn(C[C@@H](CO)OCP(=O)(O)O)c(=O)n1.O.O
result: > 400 µg/mL

query: # MCC lookup, item O=c1[nH]c(=O)n([C@H]2C[C@H](O)[C@@H](CO)O2)cc1/C=C/Br
result: > 400 µg/mL

query: MCC lookup needed for CCCCCCNC(=S)Nc1ccc(-c2n[nH]c(=S)n2C)cc1 , thanks.
result: 400 µg/mL

query: So what does the record say about MCC for CCCCCCNC(=S)Nc1ccc(-c2n[nH]c(=S)n2CC)cc1 ?
result: 400 µg/mL

query: Record request: MCC value, item CNC(=S)Nc1ccc(OCc2n[nH]c(=S)n2-c2ccccc2)cc1
result: > 400 µg/mL

query: Entry under review: CCn1c(COc2ccc(N)cc2)n[nH]c1=S . Reported MCC?
result: > 400 µg/mL

query: Which MCC is reported for this molecule? CCn1c(COc2ccc(NC(=S)NC)cc2)n[nH]c1=S
result: > 400 µg/mL

query: Need MCC of CNC(=S)Nc1ccc(OCc2n[nH]c(=S)n2C)cc1 , thanks.
result: > 400 µg/mL

----------
Assay: Cytotoxicity against human HeLa cells
Format: cell-based
Consider the following molecules and their measured MCC readings.

Guide cases for MCC, answers given:
CCNC(=S)Nc1ccc(-c2n[nH]c(=S)n2-c2ccccc2)cc1 ≥ 80 µg/mL
C=CCNC(=S)Nc1ccc(-c2n[nH]c(=S)n2-c2ccccc2)cc1 ≥ 400 µg/mL

# next molecule below
query: Value lookup for MCC; key = Nc1ccc(OCc2n[nH]c(=S)n2-c2ccccc2)cc1
result: > 400 µg/mL
